Cited source: patent US8354405B2

experimental system: human CK1 delta (Homo sapiens, UniProt P48730)
Sequence (P48730 whole entry): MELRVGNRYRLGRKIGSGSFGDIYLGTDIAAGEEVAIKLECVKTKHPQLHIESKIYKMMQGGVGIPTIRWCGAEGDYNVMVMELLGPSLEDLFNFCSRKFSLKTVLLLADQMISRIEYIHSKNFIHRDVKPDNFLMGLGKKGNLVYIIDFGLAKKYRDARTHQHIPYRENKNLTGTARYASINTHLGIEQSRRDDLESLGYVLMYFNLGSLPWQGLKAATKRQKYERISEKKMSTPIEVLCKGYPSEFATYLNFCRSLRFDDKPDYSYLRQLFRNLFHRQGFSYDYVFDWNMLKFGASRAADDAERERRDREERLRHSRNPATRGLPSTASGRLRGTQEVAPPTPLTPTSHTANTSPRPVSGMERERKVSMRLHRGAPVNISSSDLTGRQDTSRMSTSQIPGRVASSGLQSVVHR
assay details: FRET fluorescence test, Z'Lyte kinase assay kit, CK1 delta
cond: peptide SER/THR 11 2 μM, ATP 4 times KM
pIC50: −log10 of the molar value.
value type: pIC50

Q: Query: pIC50; subject: `CN1CCN(c2ccc3nc(-c4ccc(F)cc4)c(-c4ccncc4)n3n2)CC1`
Result: 8.30

Q: Query: pIC50; subject: `c1ccc(-c2nc3ccc(N4CCC(N5CCCC5)CC4)nn3c2-c2ccncc2)cc1`
Result: 7.28 to 7.30

Q: Query: pIC50; subject: `CC(C)N1CCN(c2ccc3nc(-c4ccc(Cl)cc4)c(-c4ccnc(N)c4)n3n2)CC1`
Result: 6.96 to 7.23

Q: Query: pIC50; subject: `CC1(C)CN(c2ccc3nc(-c4cc(F)cc(F)c4)c(-c4ccncc4)n3n2)CCN1`
Result: 7.03 to 7.04

====

experimental system: UniProt:P49674
Sequence (P49674 whole entry): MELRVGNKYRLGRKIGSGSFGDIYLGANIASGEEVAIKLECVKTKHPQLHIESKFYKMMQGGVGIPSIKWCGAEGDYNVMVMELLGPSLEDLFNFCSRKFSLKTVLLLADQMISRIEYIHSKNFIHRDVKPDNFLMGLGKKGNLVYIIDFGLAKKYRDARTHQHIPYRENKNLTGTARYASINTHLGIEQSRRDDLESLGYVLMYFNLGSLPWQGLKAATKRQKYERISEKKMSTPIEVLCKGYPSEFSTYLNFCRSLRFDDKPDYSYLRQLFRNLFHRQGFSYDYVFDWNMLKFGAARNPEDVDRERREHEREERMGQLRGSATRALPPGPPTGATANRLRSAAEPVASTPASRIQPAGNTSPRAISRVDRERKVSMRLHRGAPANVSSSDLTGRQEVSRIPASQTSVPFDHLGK
assay details: Filter-plate assay of ATP-33P for CK1 epsilon inhibitors (casein phosphorylation)
Type: biochemical
cond: inhibition of phosphorylation of casein, ATP-33P filter-plate, ATP 10 μM
Please provide measured pIC50 for the entries that follow.
Lab note: report pIC50 as minus log10 of the concentration in molar units, number only.

Q: Query: pIC50; subject: `Cc1c(N2CCNCC2)nn2c(-c3ccncc3)c(-c3ccc(F)cc3)nc2c1C`
Result: 9.00

Q: Query: pIC50; subject: `Cc1cc(C)cc(-c2nc3ccc(N4CCNC(C)(C)C4)nn3c2-c2ccnc(N)c2)c1`
Result: 7.22
